Listed below: Human Prostate (pA) values for each entry.
Test system: human prostate tissue
Test: Antagonism of phenylephrine-induced contraction of human prostatic tissue
Settings: pA2, phenylephrine-induced contraction, dose-ratio method

{"MOLECULE": "COc1ccc(CCNCC2CCc3ccccc3C2)cc1 (stereo not drawn) [Compound 11]", "Human Prostate (pA)": 6.64}
{"MOLECULE": "COC(=O)C1=C(C)NC(C)=C(C(=O)NCCCN2CCC(c3ccccc3)(c3ccccc3)CC2)C1c1ccc([N+](=O)[O-])cc1.Cl.O (stereo not drawn) [Compound 2]", "Human Prostate (pA)": 8.94}
{"MOLECULE": "O=C(CCCN1CCC(NC(=O)c2ccccc2)CC1)c1ccccc1 [Compound 9]", "Human Prostate (pA)": 7.41}

====

Item-by-item account of pKi
Biological target: human 5HT1E receptor (Homo sapiens, UniProt P28566)
Construct: host or cells: LM(tk-) clonal cell line 5HT1E-7
Sequence (P28566 whole entry): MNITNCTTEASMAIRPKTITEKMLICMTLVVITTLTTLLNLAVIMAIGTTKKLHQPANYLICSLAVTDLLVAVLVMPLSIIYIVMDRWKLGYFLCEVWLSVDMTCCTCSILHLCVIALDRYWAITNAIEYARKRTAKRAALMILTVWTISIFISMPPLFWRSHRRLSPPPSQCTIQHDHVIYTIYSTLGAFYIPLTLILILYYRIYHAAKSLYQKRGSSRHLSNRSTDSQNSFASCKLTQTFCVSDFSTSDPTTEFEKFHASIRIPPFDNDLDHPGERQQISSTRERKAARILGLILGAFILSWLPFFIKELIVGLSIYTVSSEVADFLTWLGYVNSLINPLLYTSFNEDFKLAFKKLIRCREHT
Assay: [3H]serotonin competition binding, 5HT1E receptor
Protocol: 5HT1Dα, 5HT1Dβ, 5HT1E, 5HT1F Receptors: The cell lysates of LM(tk−) clonal cell line stably transfected with the genes encoding each of these 5HT receptor-subtypes were prepared as described above. The cell line for the 5HT1Dα receptor, designated as Ltk-8-30-84, was deposited on Apr. […] The cell for the 5HT1Dβ receptor, designated as Ltk-11, was deposited on Apr. […] The cell line for the 5HT1E receptor, designated 5 HT1E-7, was deposited on Nov. […]
pKi: −log10 of the molar value.

{"COMPOUND": "COc1ccc(CCNCC2CCc3ccccc3C2)cc1 (stereo not drawn)", "pKi": "< 5.00"}
{"COMPOUND": "COC(=O)C1=C(C)NC(C)=C(C(=O)OCCCN2CCC(c3ccccc3)(c3ccccc3)CC2)C1c1ccc([N+](=O)[O-])cc1.Cl (stereo not drawn) [Compound 8, hydrochloride]", "pKi": "< 5.00"}
{"COMPOUND": "COC(=O)C1=C(C)NC(C)=C(C(=O)NCCCN2CCC(c3ccccc3)(c3ccccc3)CC2)C1c1ccc([N+](=O)[O-])cc1.Cl.O (stereo not drawn) [Compound 2, hydrochloride hydrate]", "pKi": "< 5.00"}

====

// values below are reported Ki
Target: human 5HT1F receptor (Homo sapiens, UniProt P30939)
Construct: host or cells: LM(tk-) clonal cell line L-5-HT1F
Sequence (P30939 1-366): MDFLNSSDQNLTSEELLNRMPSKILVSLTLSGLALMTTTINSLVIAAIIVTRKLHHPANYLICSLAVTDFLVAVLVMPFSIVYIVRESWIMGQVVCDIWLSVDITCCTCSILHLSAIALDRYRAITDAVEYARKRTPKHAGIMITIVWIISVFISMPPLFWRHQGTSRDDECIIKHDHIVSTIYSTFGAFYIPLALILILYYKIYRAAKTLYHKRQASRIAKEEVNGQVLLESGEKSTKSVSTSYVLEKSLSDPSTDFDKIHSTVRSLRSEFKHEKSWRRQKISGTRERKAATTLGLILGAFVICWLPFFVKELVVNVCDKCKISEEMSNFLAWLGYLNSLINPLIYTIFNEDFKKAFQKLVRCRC
Assay: [3H]serotonin competition binding, 5HT1F receptor
Settings: Table 2, cloned human receptor; read-out: Serotonin 5HT1F (pK1)

{"MOLECULE": "O=C(NC1CCN(CCc2c[nH]c3ccccc23)CC1)c1ccccc1 [Indoramin, reference compound]", "Ki": "> 10 µM"}
{"MOLECULE": "C=Cc1sc2ccc(Cl)c3c2c1CN(C)CC3 [SKF-104856, reference compound]", "Ki": "> 0.1 µM"}
